Molecular target: GST tagged Bcl w delta C29 protein (UniProt Q92843)
Test: competition assay; competitor: biotinylated Bim-BH3 peptide
Bridge positions count the residues as written; N and C are the ends.
binders and their reported IC50
Number only, in nM; omit the unit.

Ac-EIAQELREIGDEF-NH2 (linker 1-8 via 1,5‑diaminopentane) [Peptide A of Example 7: Ac-E-IAQELR-E-IGDEF-NH2 with a 1,5-diaminopentane linker (first position)]
1800
Ac-IAQELRRIGDEF-NH2 [Linear 12mer Ac-…-NH2]
4700
Ac-IAQELRRIGDEF-NH2 (linker 4-11 via 1,5‑diaminopentane) [Acetyl-IAQ(E1)LRRIGD(E2)F-amide with a 1,5-diaminopentane linker (second position)]
150

[in] May I ask what IC50 has been recorded for Ac-IAQELRRIGDEF-NH2 (linker 4-11 via 1,6‑diaminohexane) [Peptide C: Ac-IAQ-E-LRRIGD-E-F-NH2 with a 1,6-diaminohexane linker] ?
[out] 120
